# target-desc: T1, N-terminus formylated δ-toxin, synthetic peptide (Staphylococcus aureus, N-formylmethionine at the N-terminus (fM))
# T1 construct: also called fδ-toxin
# measurement-protocol: co-IP
# assay-conditions: both partners purified
No end group written: not given here. *: point of attachment. For = O=C*
recorded-endpoint: binding result

binder: For-MGIIAGIIKVIKSLIEQFTGK (source: synthetic peptide (Sangon Biotech, purity > 95%)) [PSMα1, synthetic peptide]
value-measured: binds
--
binder: For-MEFVAKLFKFFKDLLGKFLGNN (source: synthetic peptide (Sangon Biotech, purity > 95%)) [PSMα3, synthetic peptide]
value-measured: binds
--
binder: For-MAIVGTIIKIIKAIIDIFAK (source: synthetic peptide (Sangon Biotech, purity > 95%)) [PSMα4, synthetic peptide]
value-measured: binds
--
binder: For-MGIIAGIIKFIKGLIEKFTGK (source: synthetic peptide (Sangon Biotech, purity > 95%)) [PSMα2, synthetic peptide]
value-measured: binds
